Data origin, for the record: patent US8575163B2

# System: PDK1 kinase activity (phospho-T308-PKB) in PC3 cells
# Method Summary: Cellular testing of PDK1 kinase inhibitors in PC3 cells (Luminex, phospho-T308-PKB)
# Type: cell-based
# Assay Setup: Homo sapiens, PC-3, 0.5 h, 30 min incubation, serum-free, read-out: IC50 PC3 cells [P-PKB T308]
Recorded Endpoint: pIC50
In textbook form, pIC50 equals minus log to base ten of the concentration in mol/L.

Look up and report measured pIC50 for this entry: Cn1cc(-c2cnc3[nH]cc(-c4cc(C(C)(O)c5cccc(F)c5)nc(N)n4)c3c2)cn1 (stereo not shown)
6.96

Give a short answer stating reported pIC50 for CC[C@](O)(c1ccc(F)cc1)c1cc(-c2c[nH]c3ncc(-c4cnn(C)c4)cc23)nc(N)n1 (single isomer, unassigned) .
7.74

Tell me pIC50 reported for CC(C)n1cc(-c2cnc3[nH]cc(-c4cc(C(C)(O)c5cccc(F)c5F)nc(N)n4)c3c2)cn1 (stereo not shown)
7.85

Consider the compound Cn1cc(-c2cnc3[nH]cc(-c4cc([C@@](C)(O)c5cccc(Cl)c5F)nc(N)n4)c3c2)cn1 (single isomer, unassigned) . State its measured pIC50.
7.85

###

Consider the following compounds; for each one, report its pIC50.
# Test System: PDK1 (Homo sapiens, UniProt O15530)
# Sequence (O15530 51-556 limits assumed): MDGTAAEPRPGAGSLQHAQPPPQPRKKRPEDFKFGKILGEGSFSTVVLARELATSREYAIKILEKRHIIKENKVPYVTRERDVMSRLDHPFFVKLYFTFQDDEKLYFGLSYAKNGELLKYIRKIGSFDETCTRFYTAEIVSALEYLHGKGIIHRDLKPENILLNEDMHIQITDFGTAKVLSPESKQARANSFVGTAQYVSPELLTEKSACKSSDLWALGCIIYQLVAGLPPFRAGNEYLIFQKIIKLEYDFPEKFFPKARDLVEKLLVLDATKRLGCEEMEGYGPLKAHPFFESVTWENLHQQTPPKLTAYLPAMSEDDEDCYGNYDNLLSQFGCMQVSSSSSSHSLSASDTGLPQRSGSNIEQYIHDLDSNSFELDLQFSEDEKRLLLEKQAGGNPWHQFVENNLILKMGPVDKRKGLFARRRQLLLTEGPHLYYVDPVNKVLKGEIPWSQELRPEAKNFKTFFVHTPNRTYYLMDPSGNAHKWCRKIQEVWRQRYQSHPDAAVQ
// scale note: pIC50 = -log10(conc_M); give the bare number

Item CCC(O)(c1cccc(F)c1)c1cc(-c2c[nH]c3ncc(-c4ccc(CO)cc4)cc23)nc(N)n1 (single isomer, unassigned) [A33] : provide pIC50
6.77

Give the reported pIC50 for this compound. CC(O)(c1ccccc1)c1cc(-c2c[nH]c3ncc(-c4cnn(C(F)F)c4)cc23)nc(N)n1 (centres unmarked) [A39]
7.04

Return pIC50 for the following compound: CCC(O)(c1cc[n+]([O-])cc1)c1cc(-c2c[nH]c3ncc(-c4cnn(C)c4)cc23)nc(N)n1 (centres unmarked) [A110]
8.27

Provide only the value of recorded pIC50 for C=C(CF)n1cc(-c2cnc3[nH]cc(-c4cc(C(C)(O)c5ccccc5)nc(N)n4)c3c2)cn1 (centres unmarked) [A79]
7.17

Check the records and state pIC50 for CO[C@@](C)(c1ccccc1)c1cc(-c2c[nH]c3ncc(-c4cnn(CCO)c4)cc23)nc(N)n1 (single isomer, unassigned) [A93]
7.32

State its pIC50: CCC[C@@](O)(c1ccncc1)c1cc(-c2c[nH]c3ncc(-c4cnn(C)c4)cc23)nc(N)n1 (single isomer, unassigned) [A134]
8.39

Give reported pIC50 value for COCOC(C)(c1cc(-c2c[nH]c3ncc(-c4cnn(C)c4)cc23)nc(N)n1)c1cccc(Cl)c1F (centres unmarked) [A29]
7.40

Provide measured pIC50 value, entry: Cn1cc(-c2cnc3[nH]cc(-c4cc(C(O)(c5ccccc5)C(F)(F)F)nc(N)n4)c3c2)cn1 (centres unmarked) [A69]
6.82

Specify reported pIC50 for the compound shown: CCC(O)(c1ccncc1)c1cc(-c2c[nH]c3ncc(-c4cnn(CC(=O)N5CCCCC5)c4)cc23)nc(N)n1 (centres unmarked) [A50]
8.40

Fill in pIC50 for record CCC[C@@](O)(c1cc(-c2c[nH]c3ncc(-c4cnn(C)c4)cc23)nc(N)n1)c1ccccc1F (single isomer, unassigned) [A129]
7.80

Quote pIC50 reported for CCCC(C)(O)c1cc(-c2c[nH]c3ncc(-c4cnn(C(C)C)c4)cc23)nc(N)n1 (centres unmarked) [A87] please.
7.80

Retrieve pIC50 measured for CC[C@@](O)(c1cc(-c2c[nH]c3ncc(-c4cnn(C)c4)cc23)nc(N)n1)c1ccncc1F (single isomer, unassigned) [A132] and print it.
7.49

Recall and state the measured pIC50 for CCC[C@](O)(c1cc(-c2c[nH]c3ncc(-c4cnn(C)c4)cc23)nc(N)n1)c1ccccc1F (single isomer, unassigned) [A130] .
7.15

# return recorded pIC50 for entry CC[C@@](O)(c1ccc(F)cc1)c1cc(-c2c[nH]c3ncc(-c4cnn(C)c4)cc23)nc(N)n1 (single isomer, unassigned) [A121]
7.32
